All figures here come from patent US9513294B2.

Parameter λmax Absorp.: see the listing below.
- Experimental Details: Absorbance and fluorescence emission spectra (SpectraMax M2)
- Type: physicochemical
- Experimental Conditions: MK library, Table 5
Your answer should be a plain number; it is taken to be in nm.

1) Cc1ccccc1CNC1=[N+]2C(=C(c3ccc(N)cc3)c3ccc(-n4cc(C5CCCC5)nn4)n3[B-]2(F)F)C=C1	475
2) Nc1ccc(C2=C3C=CC(NCc4cc(F)cc(F)c4)=[N+]3[B-](F)(F)n3c2ccc3-n2cc(C3CC3)nn2)cc1	475
3) CCCC(C)c1cn(-c2ccc3n2[B-](F)(F)[N+]2=C(NCc4cc(OC)ccc4OC)C=CC2=C3c2ccc(N)cc2)nn1 (centres unmarked)	473
4) CN(Cc1ccccc1)C1=[N+]2C(=C(c3ccc(N)cc3)c3ccc(-n4cc(CC5CCCCC5)nn4)n3[B-]2(F)F)C=C1	476
5) Nc1ccc(C2=C3C=CC(N4CCc5ccccc5C4)=[N+]3[B-](F)(F)n3c2ccc3-n2cc(C3CC3)nn2)cc1	479

[ask] Determine its reported λmax Absorp.: Nc1ccc(C2=C3C=CC(N4CCc5ccccc5C4)=[N+]3[B-](F)(F)n3c2ccc3-n2cc(CO)nn2)cc1
[reply] 479

[ask] Determine its reported λmax Absorp.: CC(C)Cc1cn(-c2ccc3n2[B-](F)(F)[N+]2=C(NCc4cc(F)cc(F)c4)C=CC2=C3c2ccc(N)cc2)nn1
[reply] 476

[ask] Determine its reported λmax Absorp.: CCCc1cn(-c2ccc3n2[B-](F)(F)[N+]2=C(NCc4ccccc4OCC)C=CC2=C3c2ccc(N)cc2)nn1
[reply] 473

[ask] Determine its reported λmax Absorp.: CCCC(C)c1cn(-c2ccc3n2[B-](F)(F)[N+]2=C(NCc4ccccc4OCC)C=CC2=C3c2ccc(N)cc2)nn1 (centres unmarked)
[reply] 474

[ask] Determine its reported λmax Absorp.: COc1ccc(OC)c(CNC2=[N+]3C(=C(c4ccc(N)cc4)c4ccc(-n5cc(CCc6ccccc6)nn5)n4[B-]3(F)F)C=C2)c1
[reply] 474

[ask] Determine its reported λmax Absorp.: CC(C)Cc1cn(-c2ccc3n2[B-](F)(F)[N+]2=C(N4CCCC4)C=CC2=C3c2ccc(N)cc2)nn1
[reply] 471

[ask] Determine its reported λmax Absorp.: Cc1ccccc1CNC1=[N+]2C(=C(c3ccc(N)cc3)c3ccc(-n4cc(C5CC5)nn4)n3[B-]2(F)F)C=C1
[reply] 474

[ask] Determine its reported λmax Absorp.: CCCc1cn(-c2ccc3n2[B-](F)(F)[N+]2=C(N(C)Cc4ccccc4)C=CC2=C3c2ccc(N)cc2)nn1
[reply] 476

[ask] Determine its reported λmax Absorp.: Nc1ccc(C2=C3C=CC(N4CCCC4)=[N+]3[B-](F)(F)n3c2ccc3-n2cc(C3CCCC3)nn2)cc1
[reply] 471

###

- Experimental Details: Absorbance and fluorescence emission spectra (SpectraMax M2)
- Format: physicochemical
- Experimental Conditions: MK library, Table 5
Measured Property: λmax Absorp. (nm)
Your answer should be a plain number; it is taken to be in nm.

[ask] Determine its reported λmax Absorp.: CC1CN(C2=[N+]3C(=C(c4ccc(N)cc4)c4ccc(-n5cc(CO)nn5)n4[B-]3(F)F)C=C2)CC(C)O1 (stereo not shown) [MK20-70]
[reply] 479

###

- Experimental Details: Absorbance and fluorescence emission spectra (SpectraMax M2)
- Format: physicochemical
- Experimental Conditions: MKCA compound library; fluorescence emission maximum
Parameter λmax Emission (nm): see the listing below.
Your answer should be a plain number; it is taken to be in nm.

Worked cases, λmax Emission (nm) given:
1. CCCc1cn(-c2ccc3n2[B-](F)(F)[N+]2=C(NCc4cc(F)cc(F)c4)C=CC2=C3c2ccc(NC(=O)CCl)cc2)nn1 [MKCA412-48]	561
2. CC(C)Cc1cn(-c2ccc3n2[B-](F)(F)[N+]2=C(NCc4cc(F)cc(F)c4)C=CC2=C3c2ccc(NC(=O)CCl)cc2)nn1 [MKCA412-43]	563
3. COc1ccc(OC)c(CNC2=[N+]3C(=C(c4ccc(NC(=O)CCl)cc4)c4ccc(-n5cc(C6CCCC6)nn5)n4[B-]3(F)F)C=C2)c1 [MKCA181-5]	560
4. COc1ccc(OC)c(CNC2=[N+]3C(=C(c4ccc(NC(=O)CCl)cc4)c4ccc(-n5cc(CC6CCCCC6)nn5)n4[B-]3(F)F)C=C2)c1 [MKCA181-8]	562
5. CCCC(C)c1cn(-c2ccc3n2[B-](F)(F)[N+]2=C(N4CCc5ccccc5C4)C=CC2=C3c2ccc(NC(=O)CCl)cc2)nn1 (stereo not shown) [MKCA66-3]	582

[ask] Determine its reported λmax Emission (nm): O=C(CCl)Nc1ccc(C2=C3C=CC(NCc4cc(F)cc(F)c4)=[N+]3[B-](F)(F)n3c2ccc3-n2cc(C3CCCC3)nn2)cc1 [MKCA412-5]
[reply] 563

[ask] Determine its reported λmax Emission (nm): CN(Cc1ccccc1)C1=[N+]2C(=C(c3ccc(NC(=O)CCl)cc3)c3ccc(-n4cc(CC5CCCCC5)nn4)n3[B-]2(F)F)C=C1 [MKCA195-8]
[reply] 581

[ask] Determine its reported λmax Emission (nm): CCOc1ccccc1CNC1=[N+]2C(=C(c3ccc(NC(=O)CCl)cc3)c3ccc(-n4cc(CCc5ccccc5)nn4)n3[B-]2(F)F)C=C1 [MKCA103-19]
[reply] 563

[ask] Determine its reported λmax Emission (nm): CCCC(C)c1cn(-c2ccc3n2[B-](F)(F)[N+]2=C(NCc4cc(OC)ccc4OC)C=CC2=C3c2ccc(NC(=O)CCl)cc2)nn1 (stereo not shown) [MKCA181-3]
[reply] 564

[ask] Determine its reported λmax Emission (nm): O=C(CCl)Nc1ccc(C2=C3C=CC(N4CCc5ccccc5C4)=[N+]3[B-](F)(F)n3c2ccc3-n2cc(C3CCCC3)nn2)cc1 [MKCA66-5]
[reply] 587

[ask] Determine its reported λmax Emission (nm): CCCc1cn(-c2ccc3n2[B-](F)(F)[N+]2=C(NCc4ccccc4OCC)C=CC2=C3c2ccc(NC(=O)CCl)cc2)nn1 [MKCA103-48]
[reply] 562

[ask] Determine its reported λmax Emission (nm): O=C(CCl)Nc1ccc(C2=C3C=CC(NCc4cc(F)cc(F)c4)=[N+]3[B-](F)(F)n3c2ccc3-n2cc(CO)nn2)cc1 [MKCA412-70]
[reply] 562

[ask] Determine its reported λmax Emission (nm): CCCCCC(O)c1cn(-c2ccc3n2[B-](F)(F)[N+]2=C(NCc4ccccc4C)C=CC2=C3c2ccc(NC(=O)CCl)cc2)nn1 (stereo not shown) [MKCA101-69]
[reply] 562

###

Parameter λmax Abs. (nm): see the listing below.
- Experimental Details: Absorbance and fluorescence emission spectra (SpectraMax M2)
- Format: physicochemical
- Experimental Conditions: MKAC compound library; absorbance maximum
- Protocol: BDC-8 (Blue): absorbance λmax=473 nm, emission λmax=585 nm; MK101-8 (Green): absorbance λmax=474 nm, emission λmax=563 nm; MKHA374-48 (Yellow): absorbance λmax=468 nm, λem=557 nm. The corresponding spectra of a reported BODIPY (BD-27; Red) are also included for comparison: absorbance λmax=551 nm, emission λmax=568 nm. […] ^1H-NMR, ^19F-NMR and ^13C-NMR spectra were recorded on Bruker ACF300 (300 MHz), DPX300 (300 MHz) and AMX500 (500 MHz) spectrometers. […]
Your answer should be a plain number; it is taken to be in nm.

Worked cases, λmax Abs. (nm) given:
1. CC(=O)Nc1ccc(C2=C3C=CC(N(C)Cc4ccccc4)=[N+]3[B-](F)(F)n3c2ccc3-n2cc(C3CCCC3)nn2)cc1	467
2. CC(=O)Nc1ccc(C2=C3C=CC(NCc4ccccc4C)=[N+]3[B-](F)(F)n3c2ccc3-n2cc(C3CC3)nn2)cc1	465

[ask] Determine its reported λmax Abs. (nm): COc1ccc(OC)c(CNC2=[N+]3C(=C(c4ccc(NC(C)=O)cc4)c4ccc(-n5cc(CCc6ccccc6)nn5)n4[B-]3(F)F)C=C2)c1
[reply] 464

[ask] Determine its reported λmax Abs. (nm): CC(=O)Nc1ccc(C2=C3C=CC(N4CCc5ccccc5C4)=[N+]3[B-](F)(F)n3c2ccc3-n2cc(C3CCCC3)nn2)cc1
[reply] 470

[ask] Determine its reported λmax Abs. (nm): CC(=O)Nc1ccc(C2=C3C=CC(NCc4cc(F)cc(F)c4)=[N+]3[B-](F)(F)n3c2ccc3-n2cc(CO)nn2)cc1
[reply] 461

[ask] Determine its reported λmax Abs. (nm): CC(=O)Nc1ccc(C2=C3C=CC(NCc4cc(F)cc(F)c4)=[N+]3[B-](F)(F)n3c2ccc3-n2cc(CN(C)Cc3ccccc3)nn2)cc1
[reply] 465

###

Parameter λmax Em. (nm): see the listing below.
- Experimental Details: Absorbance and fluorescence emission spectra (SpectraMax M2)
- Assay type: physicochemical
- Experimental Conditions: MKAC compound library; fluorescence emission maximum
Your answer should be a plain number; it is taken to be in nm.

Worked cases, λmax Em. (nm) given:
1. CC(=O)Nc1ccc(C2=C3C=CC(N4CCc5ccccc5C4)=[N+]3[B-](F)(F)n3c2ccc3-n2cc(CC3CCCCC3)nn2)cc1	578
2. CC(=O)Nc1ccc(C2=C3C=CC(N(C)Cc4ccccc4)=[N+]3[B-](F)(F)n3c2ccc3-n2cc(CO)nn2)cc1	579
3. CC(=O)Nc1ccc(C2=C3C=CC(N4CCc5ccccc5C4)=[N+]3[B-](F)(F)n3c2ccc3-n2cc(CCc3ccccc3)nn2)cc1	580

[ask] Determine its reported λmax Em. (nm): CC(=O)Nc1ccc(C2=C3C=CC(NCc4ccccc4C)=[N+]3[B-](F)(F)n3c2ccc3-n2cc(CO)nn2)cc1
[reply] 561

[ask] Determine its reported λmax Em. (nm): CCCCCC(O)c1cn(-c2ccc3n2[B-](F)(F)[N+]2=C(N(C)Cc4ccccc4)C=CC2=C3c2ccc(NC(C)=O)cc2)nn1 (racemic)
[reply] 560

[ask] Determine its reported λmax Em. (nm): CC(=O)Nc1ccc(C2=C3C=CC(NCc4cc(F)cc(F)c4)=[N+]3[B-](F)(F)n3c2ccc3-n2cc(CO)nn2)cc1
[reply] 561

[ask] Determine its reported λmax Em. (nm): CCCc1cn(-c2ccc3n2[B-](F)(F)[N+]2=C(NCc4ccccc4C)C=CC2=C3c2ccc(NC(C)=O)cc2)nn1
[reply] 562

[ask] Determine its reported λmax Em. (nm): CC(=O)Nc1ccc(C2=C3C=CC(N(C)Cc4ccccc4)=[N+]3[B-](F)(F)n3c2ccc3-n2cc(CN(C)Cc3ccccc3)nn2)cc1
[reply] 575

[ask] Determine its reported λmax Em. (nm): COc1ccc(OC)c(CNC2=[N+]3C(=C(c4ccc(NC(C)=O)cc4)c4ccc(-n5cc(C6CCCC6)nn5)n4[B-]3(F)F)C=C2)c1
[reply] 563

[ask] Determine its reported λmax Em. (nm): CC(=O)Nc1ccc(C2=C3C=CC(N4CCc5ccccc5C4)=[N+]3[B-](F)(F)n3c2ccc3-n2cc(CC(C)C)nn2)cc1
[reply] 581

[ask] Determine its reported λmax Em. (nm): CC(=O)Nc1ccc(C2=C3C=CC(NCc4cc(F)cc(F)c4)=[N+]3[B-](F)(F)n3c2ccc3-n2cc(CC(C)C)nn2)cc1
[reply] 560

[ask] Determine its reported λmax Em. (nm): COc1ccc(OC)c(CNC2=[N+]3C(=C(c4ccc(NC(C)=O)cc4)c4ccc(-n5cc(C6CC6)nn5)n4[B-]3(F)F)C=C2)c1
[reply] 562

[ask] Determine its reported λmax Em. (nm): CCCC(C)c1cn(-c2ccc3n2[B-](F)(F)[N+]2=C(NCc4ccccc4OCC)C=CC2=C3c2ccc(NC(C)=O)cc2)nn1 (stereo not shown)
[reply] 561

[ask] Determine its reported λmax Em. (nm): CC(=O)Nc1ccc(C2=C3C=CC(N4CCc5ccccc5C4)=[N+]3[B-](F)(F)n3c2ccc3-n2cc(CN(C)Cc3ccccc3)nn2)cc1
[reply] 585

[ask] Determine its reported λmax Em. (nm): CCCC(C)c1cn(-c2ccc3n2[B-](F)(F)[N+]2=C(N4CC(C)OC(C)C4)C=CC2=C3c2ccc(NC(C)=O)cc2)nn1 (stereo not shown)
[reply] 583

[ask] Determine its reported λmax Em. (nm): CCCCCC(O)c1cn(-c2ccc3n2[B-](F)(F)[N+]2=C(NCc4cc(F)cc(F)c4)C=CC2=C3c2ccc(NC(C)=O)cc2)nn1 (stereo not shown)
[reply] 563

[ask] Determine its reported λmax Em. (nm): CC(=O)Nc1ccc(C2=C3C=CC(NCc4ccccc4C)=[N+]3[B-](F)(F)n3c2ccc3-n2cc(CC3CCCCC3)nn2)cc1
[reply] 563

[ask] Determine its reported λmax Em. (nm): CC(=O)Nc1ccc(C2=C3C=CC(N(C)Cc4ccccc4)=[N+]3[B-](F)(F)n3c2ccc3-n2cc(CC3CCCCC3)nn2)cc1
[reply] 577

[ask] Determine its reported λmax Em. (nm): CC(=O)Nc1ccc(C2=C3C=CC(N4CC(C)OC(C)C4)=[N+]3[B-](F)(F)n3c2ccc3-n2cc(CO)nn2)cc1 (stereo not shown)
[reply] 586
